System: NOP10
method_summary: In vivo GBM rat model: double immunofluorescence examination
condition_parameters: neurons, brain tissues, GBM rats, 30 mg/kg oral, 5 days

{"sample_smiles": "C=CCOC(=O)COc1ccc2c(c1)CCC(=O)N2", "expressions of Nopio": "moderate"}
{"sample_smiles": "CC(C)CCOc1ccc2c(c1)CCC(=O)N2", "expressions of Nopio": "mild"}
{"sample_smiles": "COc1cc(NC(=O)COc2ccc3c(c2)CCC(=O)N3)cc(OC)c1", "expressions of Nopio": "moderate"}
{"sample_smiles": "O=C1CCc2cc(OS(=O)(=O)c3cccc4ccccc34)ccc2N1", "expressions of Nopio": "moderate"}
